- Tested on: Rhizomucor miehei IHEM13391
- PROTOCOL DETAILS: Antifungal activity in vitro (resazurin susceptibility screen), Inf. K
- Type: cell-based
- CONDITIONS USED: Rhizomucor miehei, IHEM13391, Rhizomucor miehei IHEM13391; 37 °C, 48 hours, resa time 17 hours
ENDPOINT LABEL: IC50 (µM)

> print(dat)
                                    molecule               assayed.target  endpoint.label  relational.operator  observed.result
 1  CC(F)(F)c1ccc(C2=NCc3c(F)cc(Cl)cc3-n3cccc32)cc1 [Compound 32]  Rhizomucor miehei IHEM13391            IC50                    >             64.6
 2  CC(F)(F)c1cc(C2=NCc3c(Cl)cc(Cl)cc3-n3cccc32)ccc1F [Compound 25]  Rhizomucor miehei IHEM13391            IC50                    >             64.6
 3  Cc1cc(Cl)cc2c1CN=C(c1ccc(C(C)(F)F)cc1)c1cccn1-2 [Compound 16]  Rhizomucor miehei IHEM13391            IC50                    >             64.6
 4  CC(F)(F)c1ccc(C2=NCc3c(F)cc(F)cc3-n3cccc32)cc1 [Compound 18]  Rhizomucor miehei IHEM13391            IC50                    =             50.1
 5  CC(F)(F)c1cc(C2=NCc3c(Cl)cccc3-n3cccc32)ccc1F [Compound 21]  Rhizomucor miehei IHEM13391            IC50                    =             6.61
 6  CC(F)(F)c1ccc(C2=NCc3cccc(Cl)c3-n3cccc32)cc1 [Compound 19]  Rhizomucor miehei IHEM13391            IC50                    =             14.5
 7  CC(F)(F)c1cc(C2=NCc3c(Cl)cc(F)cc3-n3cccc32)ccc1F [Compound 26]  Rhizomucor miehei IHEM13391            IC50                    =             13.5
 8  CC(F)(F)c1ccc(C2=NCc3cc(Cl)cc(Cl)c3-n3cccc32)cc1 [Compound 6]  Rhizomucor miehei IHEM13391            IC50                    >             64.6
 9  CC(F)(F)c1ccc(C2=NCc3c(Cl)cc(Cl)cc3-n3cccc32)cc1 [Compound 9]  Rhizomucor miehei IHEM13391            IC50                    >             64.6
10  CC(F)(F)c1cc(C2=NCc3c(F)cccc3-n3cccc32)ccc1F [Compound 20]  Rhizomucor miehei IHEM13391            IC50                    =             26.9
11  CC(F)(F)c1cccc(C2=NCc3c(Cl)cccc3-n3cccc32)c1 [Compound 14]  Rhizomucor miehei IHEM13391            IC50                    =             45.7
12  CC(F)(F)c1ccc(C2=NCc3c(Cl)cccc3-n3cccc32)cc1 [Compound 4]  Rhizomucor miehei IHEM13391            IC50                    >             64.6
13  CC(F)(F)c1ccc(C2=NCc3c(F)cc(F)cc3-n3cccc32)cc1F [Compound 33]  Rhizomucor miehei IHEM13391            IC50                    >             64.6
14  Cc1ccc(Cl)c2c1CN=C(c1ccc(C(C)(F)F)cc1)c1cccn1-2 [Compound 28]  Rhizomucor miehei IHEM13391            IC50                    =             41.7
15  CC(F)(F)c1cc(C2=NCc3c(F)cc(F)cc3-n3cccc32)ccc1F [Compound 23]  Rhizomucor miehei IHEM13391            IC50                    >             64.6
16  CC(F)(F)c1ccc(C2=NCc3c(F)cccc3-n3cccc32)cc1F [Compound 30]  Rhizomucor miehei IHEM13391            IC50                    =             12.3
17  CC(F)(F)c1ccc(C2=NCc3c(Cl)cc(F)cc3-n3cccc32)cc1F [Compound 31]  Rhizomucor miehei IHEM13391            IC50                    >             64.6
18  CC(F)(F)c1ccc(C2=NCc3c(Cl)cccc3-n3cccc32)cc1F [Compound 29]  Rhizomucor miehei IHEM13391            IC50                    >             64.6

---

- PROTOCOL DETAILS: Solubility in buffer systems A-G
- Type: physicochemical
- CONDITIONS USED: phosphate-citrate (McIlvaine) buffer pH 4, pH 4, aqueous buffer, thermodynamic from solid, buffer pH 4; ambient temperature; read-out: Solubility, buffer system B
ENDPOINT LABEL: solubility (µg/mL)

> print(dat)
                                   compound  endpoint.label  observed.result
1  CC(F)(F)c1ccc(C2=NCc3ccc(Cl)cc3-n3cccc32)cc1 [drawing 30]      solubility               87

---

# reported solubility; entries follow
- PROTOCOL DETAILS: Solubility in buffer systems A-G
- Assay type: physicochemical
- CONDITIONS USED: pH 4, aqueous with cosolvent or surfactant or cyclodextrin, thermodynamic from solid, buffer pH 4, containing 10% (w/v) of HPBCD; read-out: Solubility, buffer system C
- Description: A magnetic stirring bar was added to the mixtures. […] If the compound was dissolved, the result was reported (twice the weighed amount of compound/ml). If the compound was not dissolved, 0.5 ml of extra solvent was added to the suspension. […] If the compound was dissolved, the result was reported (weighed amount of compound/ml). If the compound was not dissolved, 1 ml of extra solvent is pipetted into the suspension. […]
ENDPOINT LABEL: solubility (µg/mL)

> print(dat)
                                   compound  endpoint.label  observed.result
1  CC(F)(F)c1ccc(C2=NCc3ccc(Cl)cc3-n3cccc32)cc1 [drawing 30]      solubility             1230
2  CCc1ccc(C2=NCc3ccc(Cl)cc3-n3cccc32)cc1 [drawing 29]      solubility               48

---

- PROTOCOL DETAILS: In vivo pharmacokinetic determinations (bioavailability) in guinea pigs
- CONDITIONS USED: guinea pig, po, 10 mg/kg
- Description: Three animals (mean weight 20±7 g for mice and 275±20 for Guinea pigs) were used per dose route, time point and formulation. For the oral (PO) solution formulation, compound was dissolved in a 20% hydroxypropyl-β-cyclodextrin (HP-β-CD) solution at a final concentration of 1 mg/ml. HCl was added to facilitate dissolution. […] The formulations were stored at room temperature, protected from light and analysed quantitatively with LC-MS/MS on the day of preparation. […]
ENDPOINT LABEL: bioavailability (%)

> print(dat)
                                   molecule  quantity.unit  observed.result
1  CC(F)(F)c1ccc(C2=NCc3ccc(Cl)cc3-n3cccc32)cc1              %               70
2  CN(C/C=C/C#CC(C)(C)C)Cc1cccc2ccccc12 [Terbinafine, reference compound]              %               14

---

- System: Rhizomucor miehei IHEM13391
- PROTOCOL DETAILS: Antifungal activity in vitro (resazurin susceptibility screen), Inf. K
- Type: cell-based
- CONDITIONS USED: Rhizomucor miehei, IHEM13391, Rhizomucor miehei IHEM13391; 37 °C, 48 hours, resa time 17 hours
ENDPOINT LABEL: IC50

> print(dat)
                           structure.smiles               assayed.target  endpoint.label  observed.result
1  CC(F)(F)c1ccc(C2=NCc3c(Cl)cc(F)cc3-n3cccc32)cc1  Rhizomucor miehei IHEM13391            IC50          8.32 µM
2  CC(F)(F)c1ccc(C2=NCc3c(F)cccc3-n3cccc32)cc1  Rhizomucor miehei IHEM13391            IC50        > 64.6 µM
3  CC(F)(F)c1ccc(C2=NCc3ccc(Cl)cc3-n3cccc32)cc1  Rhizomucor miehei IHEM13391            IC50        > 64.6 µM
